# Assay Name: in vitro
# Assay Setup: mouse, plasma
Non-standard residues stand in square brackets, D forms with d. Residues, ends and D or L forms follow the SMILES beside them. Nle = CCCC[C@H](N)C(=O)O
Measurement Kind: half-life at 1 µM (min)
Numbers only, in min.

Value lookup for half-life at 1 µM; key = CCCC[C@H](NC(=O)[C@@H](NC(=O)[C@@H](N)Cc1ccc(O)cc1)C(C)C)C(=O)N[C@H](C)C(=O)N[C@@H](Cc1c[nH]cn1)C(=O)N[C@@H](Cc1ccccc1)C(=O)N[C@@H](CCCNC(=N)N)C(=O)N[C@H](Cc1c[nH]c2ccccc12)C(=O)N[C@@H](CC(=O)O)C(=O)N[C@@H](CCCNC(=N)N)C(=O)N[C@@H](Cc1ccccc1)C(=O)NCC(=O)O [CTX-1103] (H-YV[Nle][dA]HFR[dW]DRFG-OH) 1.46

----------
# Assay Name: Mouse plasma stability (A)
# Assay Setup: mouse, pooled mouse plasma
Measurement Kind: half-life at 1 µM (min)
Numbers only, in min.

Value lookup for half-life at 1 µM; key = CCN(CC)CCOC(=O)c1ccc(N)cc1 [Procaine, reference compound] 3.81
